# Experiment summary: Fluorescence spectrum in TE buffer of dyes selected from live cell imaging
# Type: physicochemical
# Setup conditions: dye 10 μM in TE buffer
The label 1 (yes) is reserved for SPECTRUM EM strictly under 600 nm; 0 (no) covers values equal to or above it.

The following compounds have reported results that may help.
>  <Query smiles>
COc1ccc(-c2ccc(/C=C/c3cccc[n+]3C)o2)cc1Cl

>  <Assigned class>
1 (yes)

$$$$
>  <Query smiles>
COc1ccc2c(ccc(/C=C/c3cccc(C(F)(F)F)c3)[n+]2C)c1

>  <Assigned class>
1 (yes)

$$$$
>  <Query smiles>
COc1ccc2c(ccc(/C=C/c3ccc(N(C)C)cc3[N+](=O)[O-])[n+]2C)c1

>  <Assigned class>
0 (no)

$$$$

Exam item: Confirm or reject: SPECTRUM EM of CCCCCC(/C=C/c1ccc2cc(OC)ccc2[n+]1C)=C\c1ccccc1 lies strictly below 600 nm
Marked response: 1 (yes)

Exam item: Confirm or reject: SPECTRUM EM of COc1ccc2c(ccc(C=Cc3ccc4c(c3)OCO4)[n+]2C)c1 lies strictly below 600 nm
Marked response: 1 (yes)

Exam item: Confirm or reject: SPECTRUM EM of COc1ccc2c(ccc(C=Cc3ccc(O)c(Br)c3)[n+]2C)c1 lies strictly below 600 nm
Marked response: 0 (no)

Exam item: Confirm or reject: SPECTRUM EM of COc1ccc2c(ccc(/C=C/c3cccc(Br)n3)[n+]2C)c1 lies strictly below 600 nm
Marked response: 1 (yes)

Exam item: Confirm or reject: SPECTRUM EM of COc1ccc2c(ccc(C=Cc3ccc(C)c4ccccc34)[n+]2C)c1 lies strictly below 600 nm
Marked response: 1 (yes)

Exam item: Confirm or reject: SPECTRUM EM of COc1ccc2c(ccc(C=Cc3ccccc3Br)[n+]2C)c1 lies strictly below 600 nm
Marked response: 1 (yes)
